Data credit: ChEMBL document CHEMBL1126734

- System: HL-60
- assay.name: Standard thymidine incorporation assay (TdR) was carried out for 48 hr with an 8 hr pulse of [3H]- thymidine (TdR8) (n=6) and ID50 value was evaluated
- Format: functional
- test.context: Homo sapiens, read-out: ID50 (the source's name)
quantity.name: IC50 (nM)
Give your result in nM as a bare value.

**Query** Name the recorded IC50 for CCCCCCCCCCCCCCCCSCC(C[N+](C)(C)CC(O)CO)OC (stereo unspecified) .
**Result** 1900

----------
- Test system: HL-60
- assay.name: Standard thymidine incorporation assay (TdR) was carried out for 48 hr and involved a 24-h pulse of [3H]- thymidine (n=1) and ID50 value was evaluated
- Type: functional
- test.context: Homo sapiens, read-out: ID50 (the source's name)
quantity.name: pIC50
A value of pIC50 is the negative decimal logarithm of a concentration given in moles per litre.

**Query** Need pIC50 of CCCCCCCCCCCCCCCCSCC[N+](C)(C)CCO , thanks.
**Result** 5.40

**Query** Name the recorded pIC50 for CCCCCCCCCCCCSCC(C[N+](C)(C)C)OC (stereo not given) .
**Result** 5.65

**Query** # get_value(readout='pIC50', item= CCCCCCCCCCCCCCCCSCC(C[N+]1(C)CCCC1)OCC (stereo not given) )
**Result** 5.68

**Query** Look up pIC50: CCCCCCCCCCCCCCCCSCC(C[N+](C)(C)C)OCCCCC (stereo not given)
**Result** 5.30

**Query** Reported pIC50, molecule CCCCCCCCCCCCCCCCSCCOP(=O)([O-])OCC[N+](C)(C)C : ____
**Result** 5.29

**Query** Please look up its pIC50: CCCCCCCCCCCCCCCCSCCC[N+]1(C)CCC(O)C1 (stereo not given)
**Result** 5.42

**Query** # lookup: pIC50 of CCCCCCCCCCCCCCCCSCC[n+]1ccccc1
**Result** 5.64

**Query** What value of measured pIC50 is listed for CCCCCCCCCCCCCCCCSCC(C[N+](C)(C)CCO)OCCCCCC (stereo not given) ?
**Result** 5.15

**Query** State the recorded pIC50 for this entry: CCCCCCCCCCCCCCCCSCC(COC)C[N+](C)(C)CCCO (stereo not given)
**Result** 5.46

**Query** Please look up its pIC50: CCCCCCCCCCCCCCCCSCC(COC)C[N+](C)(C)C (stereo not given)
**Result** 5.45
